tested on: chimeric Caspase-9 polypeptide; experiment: Caspase-9 mutant classes and basal activity (Table 5); assay type: cell-based; details: Caspase-9 mutant class; basal (ligand-independent) signaling compared with unmodified chimeric Caspase-9
Sequence (P62942 2-108 F37V limits assumed): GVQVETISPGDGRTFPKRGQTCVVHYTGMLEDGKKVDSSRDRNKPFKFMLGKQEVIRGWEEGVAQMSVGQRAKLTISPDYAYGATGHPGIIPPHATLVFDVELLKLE
valueType: Basal Activity

* Y153A (protein) GFGDVGALESLRGNADLAAILSMEPCGHCLIINNVNFCRESGLRTRTGSNIDCEKLRRRFSSLHFMVEVKGDLTAKKMVLALLELARQDHGALDCCVVVILSHGCQASHLQFPGAVYGTDGCPVSVEKIVNIFNGTSCPSLGGKPKLFFIQACGGEQKDHGFEVASTSPEDESPGSNPEPDATPFQEGLRTFDQLDAISSLPTPSDIFVSYSTFPGFVSWRDPKSGSWYVETLDDIFEQWAHSEDLQSLLLRVANAVSVKGIYKQMPGCFNFLRKKLFFKTSASRA | Decreased
* D330G (protein) GFGDVGALESLRGNADLAYILSMEPCGHCLIINNVNFCRESGLRTRTGSNIDCEKLRRRFSSLHFMVEVKGDLTAKKMVLALLELARQDHGALDCCVVVILSHGCQASHLQFPGAVYGTDGCPVSVEKIVNIFNGTSCPSLGGKPKLFFIQACGGEQKDHGFEVASTSPEDESPGSNPEPDATPFQEGLRTFDQLGAISSLPTPSDIFVSYSTFPGFVSWRDPKSGSWYVETLDDIFEQWAHSEDLQSLLLRVANAVSVKGIYKQMPGCFNFLRKKLFFKTSASRA | Decreased
* T317A (protein) GFGDVGALESLRGNADLAYILSMEPCGHCLIINNVNFCRESGLRTRTGSNIDCEKLRRRFSSLHFMVEVKGDLTAKKMVLALLELARQDHGALDCCVVVILSHGCQASHLQFPGAVYGTDGCPVSVEKIVNIFNGTSCPSLGGKPKLFFIQACGGEQKDHGFEVASTSPEDESPGSNPEPDAAPFQEGLRTFDQLDAISSLPTPSDIFVSYSTFPGFVSWRDPKSGSWYVETLDDIFEQWAHSEDLQSLLLRVANAVSVKGIYKQMPGCFNFLRKKLFFKTSASRA | Decreased
* D330E (protein) GFGDVGALESLRGNADLAYILSMEPCGHCLIINNVNFCRESGLRTRTGSNIDCEKLRRRFSSLHFMVEVKGDLTAKKMVLALLELARQDHGALDCCVVVILSHGCQASHLQFPGAVYGTDGCPVSVEKIVNIFNGTSCPSLGGKPKLFFIQACGGEQKDHGFEVASTSPEDESPGSNPEPDATPFQEGLRTFDQLEAISSLPTPSDIFVSYSTFPGFVSWRDPKSGSWYVETLDDIFEQWAHSEDLQSLLLRVANAVSVKGIYKQMPGCFNFLRKKLFFKTSASRA | Decreased
* D330A-S144A (protein) GFGDVGALEALRGNADLAYILSMEPCGHCLIINNVNFCRESGLRTRTGSNIDCEKLRRRFSSLHFMVEVKGDLTAKKMVLALLELARQDHGALDCCVVVILSHGCQASHLQFPGAVYGTDGCPVSVEKIVNIFNGTSCPSLGGKPKLFFIQACGGEQKDHGFEVASTSPEDESPGSNPEPDATPFQEGLRTFDQLAAISSLPTPSDIFVSYSTFPGFVSWRDPKSGSWYVETLDDIFEQWAHSEDLQSLLLRVANAVSVKGIYKQMPGCFNFLRKKLFFKTSASRA | Decreased

Next molecule, Basal Activity to be filled in.
Challenge: I would be grateful if you could share the reported Basal Activity for S195A (protein) GFGDVGALESLRGNADLAYILSMEPCGHCLIINNVNFCRESGLRTRTGSNIDCEKLRRRFASLHFMVEVKGDLTAKKMVLALLELARQDHGALDCCVVVILSHGCQASHLQFPGAVYGTDGCPVSVEKIVNIFNGTSCPSLGGKPKLFFIQACGGEQKDHGFEVASTSPEDESPGSNPEPDATPFQEGLRTFDQLDAISSLPTPSDIFVSYSTFPGFVSWRDPKSGSWYVETLDDIFEQWAHSEDLQSLLLRVANAVSVKGIYKQMPGCFNFLRKKLFFKTSASRA .
Response given: Decreased
